- Tested on: Escherichia coli
- test.protocol: Inhibition of multidrug resistance efflux pump in wild-type Escherichia coli AB1157 assessed as concentration required to reduce piperacillin MIC by 4-fold by checkerboard assay
Param label: returns Criterion met when INH < 3 µM, returns Criterion not met otherwise, including exact equality.

Report whether reported INH is lower than 3 µM (strictly) for `COCCN1CCN(c2nc(SCCc3cccc(Br)c3)c(C#N)c3c2COC(C)(C)C3)CC1`
Criterion met

Report whether reported INH is lower than 3 µM (strictly) for `CCN(CC)c1nc(SCCc2ccccc2)c(C#N)c2c1COC(C)(C)C2`
Criterion not met

Report whether reported INH is lower than 3 µM (strictly) for `COCCN1CCN(c2nc(SCCc3ccccc3)c(C#N)c3c2COC(C)(C)C3)CC1`
Criterion met

Report whether reported INH is lower than 3 µM (strictly) for `CC1(C)Cc2c(C#N)c(SCC(=O)c3ccccc3)nc(N3CCOCC3)c2CO1`
Criterion not met

Report whether reported INH is lower than 3 µM (strictly) for `CC1(C)Cc2c(C#N)c(SCCc3ccccc3)nc(N3CCCC3)c2CO1`
Criterion not met

Report whether reported INH is lower than 3 µM (strictly) for `CC1(C)Cc2c(C#N)c(SCCc3ccccc3)nc(N3CCCOCC3)c2CO1`
Criterion met

Report whether reported INH is lower than 3 µM (strictly) for `CC1(C)Cc2c(C#N)c(SCCC#N)nc(N3CCOCC3)c2CO1`
Criterion not met

Report whether reported INH is lower than 3 µM (strictly) for `COCCN1CCN(c2nc(SCCc3cccc(OC)c3)c(C#N)c3c2COC(C)(C)C3)CC1`
Criterion not met

Report whether reported INH is lower than 3 µM (strictly) for C=CC(=O)Nc1ccc(CCSc2nc(N3CC(C)OC(C)C3)c3c(c2C#N)CC(C)(C)OC3)cc1 (stereo not given)
Criterion met

Report whether reported INH is lower than 3 µM (strictly) for CC1CN(c2nc(SCCc3ccc(NS(C)(=O)=O)cc3)c(C#N)c3c2COC(C)(C)C3)CC(C)O1 (stereo not given)
Criterion not met

Report whether reported INH is lower than 3 µM (strictly) for `CC1(C)Cc2c(C#N)c(SCCc3c[nH]c4ccccc34)nc(N3CCOCC3)c2CO1`
Criterion met

Report whether reported INH is lower than 3 µM (strictly) for `CC1(C)Cc2c(C#N)c(SCCc3cccc(F)c3)nc(N3CCOCC3)c2CO1`
Criterion not met

Report whether reported INH is lower than 3 µM (strictly) for `COc1ccc(CCSc2nc(N3CCOCC3)c3c(c2C#N)CC(C)(C)OC3)cc1`
Criterion not met

Report whether reported INH is lower than 3 µM (strictly) for CC(=O)Nc1ccc(CCSc2nc(N3CC(C)OC(C)C3)c3c(c2C#N)CC(C)(C)OC3)cc1 (stereo not given)
Criterion met

Report whether reported INH is lower than 3 µM (strictly) for `CC1(C)Cc2c(C#N)c(SCCc3ccc(F)cc3)nc(N3CCOCC3)c2CO1`
Criterion not met

Report whether reported INH is lower than 3 µM (strictly) for `COCCN1CCN(c2nc(SCCc3ccc(OC)cc3)c(C#N)c3c2COC(C)(C)C3)CC1`
Criterion not met

Report whether reported INH is lower than 3 µM (strictly) for CC1CN(c2nc(SCCc3ccc(N)cc3)c(C#N)c3c2COC(C)(C)C3)CC(C)O1 (stereo not given)
Criterion met

Report whether reported INH is lower than 3 µM (strictly) for `COCCN1CCN(c2nc(SCCc3ccncc3)c(C#N)c3c2COC(C)(C)C3)CC1`
Criterion not met

Report whether reported INH is lower than 3 µM (strictly) for `CC1(C)Cc2c(C#N)c(SCCc3cccnc3)nc(N3CCOCC3)c2CO1`
Criterion not met

Report whether reported INH is lower than 3 µM (strictly) for `COc1ccccc1CCSc1nc(N2CCOCC2)c2c(c1C#N)CC(C)(C)OC2`
Criterion not met
